Target: LmxCLK1 (Leishmania mexicana)
Experiment: biochemical
Type: binding
Conditions: DSF, 10 µM compound, 2 µM LmxCLK1, mean of two runs
// returns Not met unless ΔTm Average is strictly below -0.1 °C, in which case Met

{"Molecule": "O=C(NC[C@H](O)CO)c1ccncc1Nc1ccc(I)cc1F", "Group": "Not met"}
{"Molecule": "c1cncc(CN2CCC(n3ncc4c(N5CCOCC5)nc(-c5ccc6[nH]ccc6c5)nc43)CC2)c1", "Group": "Met"}
{"Molecule": "CC(C)N(CCC(=O)c1ccc2ccccc2c1)Cc1ccccc1.Cl [ZM 39923 HCl]", "Group": "Met"}
{"Molecule": "CN1CCN(CCOc2cc(OC3CCOCC3)c3c(Nc4c(Cl)ccc5c4OCO5)ncnc3c2)CC1", "Group": "Not met"}

Exam item: Please check: ΔTm Average for CC(=O)c1c(C)c2cnc(Nc3ccc(N4CCNCC4)cn3)nc2n(C2CCCC2)c1=O.Cl [Palbociclib (PD-0332991) HCl] , strictly under -0.1 °C or not?
Marked response: Not met

###

Test system: LmxCLK1-overexpressing L. mexicana
Assay: microbe, parasite or virus in culture
Format: cell-based, Leishmania mexicana
Settings: Leishmania mexicana, read-out: EC50 LmxCLK1-overexpressing parasites
Outcome measure: EC50

Exam item: EC50 lookup needed for C=CC(=O)Nc1cccc(Sc2nc(Nc3ccc(N4CCN(C)CC4)cc3)ncc2Cl)c1 [WZ8040] , thanks.
Marked response: 17.6 µM

###

Molecular target: NLuc::LmxCLK1 (Leishmania mexicana)
Assay: cell-based
Type: cell-based
Conditions: read-out: Target occupancy Run 2
The entries below come with measured receptor occupancy at 10 µM values attached.
Report the value in % with no unit label.

// below: answered molecules
{"Molecule": "Cc1ccc2nc(NCCN)c3ncc(C)n3c2c1 [BMS-345541]", "Tested target": "NLuc::LmxCLK1 (Leishmania mexicana)", "receptor occupancy at 10 µM / %": -9.4}
{"Molecule": "Cc1[nH]c(/C=C2\\C(=O)Nc3ccc(S(=O)(=O)N(C)c4cccc(Cl)c4)cc32)c(C)c1C(=O)N1CCN(C)CC1 [SU11274]", "Tested target": "NLuc::LmxCLK1 (Leishmania mexicana)", "receptor occupancy at 10 µM / %": -6}
{"Molecule": "O=C(NC1CCNCC1)c1[nH]ncc1NC(=O)c1c(Cl)cccc1Cl [AT7519]", "Tested target": "NLuc::LmxCLK1 (Leishmania mexicana)", "receptor occupancy at 10 µM / %": -34}
{"Molecule": "O=C(Nc1ccc(OC(F)(F)F)cc1)c1sccc1NCc1ccnc2ccccc12 [OSI-930]", "Tested target": "NLuc::LmxCLK1 (Leishmania mexicana)", "receptor occupancy at 10 µM / %": 0.6}
{"Molecule": "O=C1c2ccc(Nc3ccc(F)cc3F)cc2CCc2ccc(OC[C@H](O)CO)cc21 [Skepinone-L]", "Tested target": "NLuc::LmxCLK1 (Leishmania mexicana)", "receptor occupancy at 10 µM / %": -9.2}
{"Molecule": "C[C@@H]1COC(Nc2ccc3ncnc(Nc4ccc(OCc5nccs5)c(Cl)c4)c3c2)=N1 [Varlitinib]", "Tested target": "NLuc::LmxCLK1 (Leishmania mexicana)", "receptor occupancy at 10 µM / %": -4.3}
{"Molecule": "O=C(O)c1ccc(-c2c[nH]c3ncc(-c4ccccc4)cc23)cc1C1CCCC1 [GSK650394]", "Tested target": "NLuc::LmxCLK1 (Leishmania mexicana)", "receptor occupancy at 10 µM / %": 6.7}
{"Molecule": "O=C(/C=C/c1ccc(O)c(O)c1)c1ccc(O)cc1O [Butein]", "Tested target": "NLuc::LmxCLK1 (Leishmania mexicana)", "receptor occupancy at 10 µM / %": -25}

Exam item: receptor occupancy at 10 µM lookup needed for CNC(=O)c1cccc(-c2ccc3c(N4CCOC[C@@H]4C)nc(N4CCOC[C@@H]4C)nc3n2)c1 [AZD2014] , thanks.
Marked response: -11.6

Exam item: Also need COC[C@H]1OC(=O)c2coc3c2[C@@]1(C)C1=C(C3=O)[C@@H]2CCC(=O)[C@@]2(C)C[C@H]1OC(C)=O [Wortmannin] , thanks.
Marked response: -4.8

###

Target: LmxCLK1 (Leishmania mexicana)
Sequence (E9AMP2 1-422): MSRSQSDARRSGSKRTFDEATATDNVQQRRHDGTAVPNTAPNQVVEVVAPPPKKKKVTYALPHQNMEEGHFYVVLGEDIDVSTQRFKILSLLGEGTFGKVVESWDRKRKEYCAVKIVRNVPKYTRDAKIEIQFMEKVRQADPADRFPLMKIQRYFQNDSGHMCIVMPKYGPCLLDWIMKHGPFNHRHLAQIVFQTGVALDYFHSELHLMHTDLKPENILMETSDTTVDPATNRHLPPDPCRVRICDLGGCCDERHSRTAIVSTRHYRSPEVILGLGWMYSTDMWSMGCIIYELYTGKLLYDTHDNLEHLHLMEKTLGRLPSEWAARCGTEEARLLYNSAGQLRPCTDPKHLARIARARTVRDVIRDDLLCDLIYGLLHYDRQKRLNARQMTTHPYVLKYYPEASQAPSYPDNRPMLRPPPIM
Experiment: biochemical
Assay type: binding
Details: DSF, 10 µM compound, 2 µM LmxCLK1, Run 2; read-out: ΔTm Run 2
// returns false (0) unless ΔTm at 10 µM is strictly below -0.1 °C, in which case true (1)

{"Structure": "Cc1c(Cn2c(C)nc3c(C(=O)O)cc(N4CCOCC4)cc32)cccc1C(F)(F)F", "Tested target": "LmxCLK1 (Leishmania mexicana)", "Group": "false (0)"}
{"Structure": "CC(C)(C)Cn1c(N)nc2ccc(-c3[nH]c(C(C)(C)C)nc3-c3ccc(F)cc3)nc21", "Tested target": "LmxCLK1 (Leishmania mexicana)", "Group": "true (1)"}

Exam item: Please check: ΔTm at 10 µM for `COCC(=O)NC/C=C/c1ccc2ncnc(Nc3ccc(Oc4ccc(C)nc4)c(C)c3)c2c1` , strictly under -0.1 °C or not?
Marked response: false (0)

###

The entries below come with measured ΔTm Run 2 values attached.
Target: LmxCLK1 (Leishmania mexicana)
Sequence (E9AMP2 1-422): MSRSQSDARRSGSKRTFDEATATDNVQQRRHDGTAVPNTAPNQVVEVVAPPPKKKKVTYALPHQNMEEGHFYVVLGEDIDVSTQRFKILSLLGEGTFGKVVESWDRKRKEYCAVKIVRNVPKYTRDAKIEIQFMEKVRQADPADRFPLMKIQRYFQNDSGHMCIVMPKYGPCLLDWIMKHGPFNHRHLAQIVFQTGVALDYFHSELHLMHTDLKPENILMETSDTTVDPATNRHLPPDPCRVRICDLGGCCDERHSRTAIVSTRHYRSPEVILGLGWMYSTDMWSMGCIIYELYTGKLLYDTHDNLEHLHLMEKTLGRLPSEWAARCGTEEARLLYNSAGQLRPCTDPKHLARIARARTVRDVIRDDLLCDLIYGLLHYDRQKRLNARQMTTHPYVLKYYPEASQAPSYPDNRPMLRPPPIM
Assay: biochemical
Assay type: binding
Report the value in °C with no unit label.

{"Compound": "CN(C)CCCn1cc(C2=C(c3c[nH]c4ccccc34)C(=O)NC2=O)c2ccccc21 [GF109203X]", "Value units": "°C", "ΔTm Run 2": 0.1}

API: the following record is the query input.
Exam item: ΔTm Run 2 lookup needed for COc1ccc2cc(-c3nc(-c4ccc([S+](C)[O-])cc4)[nH]c3-c3ccncc3)ccc2c1 (stereo not shown) [Tie2 kinase inhibitor] , thanks.
Marked response: 0

###

The entries below come with measured ΔTm Run 1 values attached.
Biological target: UniProt E9AMP2
Experiment: biochemical
Type: binding
Details: DSF, 10 µM compound, 2 µM LmxCLK1, Run 1
Report the value in °C with no unit label.

// below: answered molecules
{"Molecule": "Cl.O=S(=O)(c1cccc2cnccc12)N1CCCNCC1 [Fasudil (HA-1077) HCl]", "ΔTm Run 1 (°C)": 0.9}
{"Molecule": "CO[C@H]1C[C@@H]2CC[C@@H](C)[C@@](O)(O2)C(=O)C(=O)N2CCCC[C@H]2C(=O)O[C@H]([C@H](C)C[C@@H]2CC[C@@H](OP(C)(C)=O)[C@H](OC)C2)CC(=O)[C@H](C)/C=C(\\C)[C@@H](O)[C@@H](OC)C(=O)[C@H](C)C[C@H](C)/C=C/C=C/C=C/1C", "ΔTm Run 1 (°C)": 0.0}
{"Molecule": "COc1cc2ncnc(Nc3ccc(F)c(Cl)c3)c2cc1NC(=O)/C=C/CN1CCCCC1", "ΔTm Run 1 (°C)": -0.4}

Exam item: ΔTm Run 1 lookup needed for `Cc1cn(-c2cc(NC(=O)c3ccc(C)c(Nc4nccc(-c5cccnc5)n4)c3)cc(C(F)(F)F)c2)cn1` , thanks.
Marked response: 0.0
